Each entry below carries its recorded Mean % WT Binding.
# assayedSystem: human CD33 H137A (human, UniProt P20138 18-364)
# Sequence (P20138 18-364 H137A limits assumed): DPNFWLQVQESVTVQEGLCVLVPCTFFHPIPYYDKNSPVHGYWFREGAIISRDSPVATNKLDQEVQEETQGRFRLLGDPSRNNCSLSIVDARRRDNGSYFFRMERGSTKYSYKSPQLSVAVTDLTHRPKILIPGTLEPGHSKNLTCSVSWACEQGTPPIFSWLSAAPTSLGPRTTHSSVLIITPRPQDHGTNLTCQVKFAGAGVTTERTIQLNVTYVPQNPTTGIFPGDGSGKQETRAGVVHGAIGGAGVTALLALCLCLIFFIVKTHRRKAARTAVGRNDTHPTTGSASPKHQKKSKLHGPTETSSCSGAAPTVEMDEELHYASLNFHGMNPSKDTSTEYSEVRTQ
# protocolDetails: flow cytometry on HEK293-T, alanine scan
Your answer is read as % WT binding, so omit the unit and give the number.

{"binder": "Refmab #3 (antibody, V domains shown, The alanine scan used IgG or Fab) VH: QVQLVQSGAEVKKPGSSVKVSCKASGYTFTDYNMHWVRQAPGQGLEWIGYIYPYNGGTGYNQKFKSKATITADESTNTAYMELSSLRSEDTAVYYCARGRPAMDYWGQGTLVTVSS VL: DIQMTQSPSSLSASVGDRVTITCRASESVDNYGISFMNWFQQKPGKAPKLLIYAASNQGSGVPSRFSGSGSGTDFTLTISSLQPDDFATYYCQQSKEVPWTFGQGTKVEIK", "Mean % WT Binding [% WT binding]": 100}
{"binder": "Refmab #2 (antibody, V domains shown, The alanine scan used IgG or Fab) VH: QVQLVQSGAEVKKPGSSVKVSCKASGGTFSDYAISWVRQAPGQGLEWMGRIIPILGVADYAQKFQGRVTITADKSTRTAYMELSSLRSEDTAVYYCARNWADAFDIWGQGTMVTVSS VL: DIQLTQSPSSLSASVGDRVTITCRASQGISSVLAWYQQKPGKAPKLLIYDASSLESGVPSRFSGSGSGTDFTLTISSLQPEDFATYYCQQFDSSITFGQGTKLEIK", "Mean % WT Binding [% WT binding]": 120}
{"binder": "Refmab #4 (antibody, V domains shown, The alanine scan used IgG or Fab) VH: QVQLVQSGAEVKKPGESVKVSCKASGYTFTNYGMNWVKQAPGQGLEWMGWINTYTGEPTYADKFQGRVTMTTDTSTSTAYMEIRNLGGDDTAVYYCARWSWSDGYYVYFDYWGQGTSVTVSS VL: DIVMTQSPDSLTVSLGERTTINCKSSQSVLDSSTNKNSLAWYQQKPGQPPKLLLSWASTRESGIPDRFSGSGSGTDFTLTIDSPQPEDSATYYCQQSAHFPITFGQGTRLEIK", "Mean % WT Binding [% WT binding]": 108}

Mean % WT Binding reported for this binder Refmab #1 (antibody, V domains shown, The alanine scan used IgG or Fab; also called hP67.6) VH: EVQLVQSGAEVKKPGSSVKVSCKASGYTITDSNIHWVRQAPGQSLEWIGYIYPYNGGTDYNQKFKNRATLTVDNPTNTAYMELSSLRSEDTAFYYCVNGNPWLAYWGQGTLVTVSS VL: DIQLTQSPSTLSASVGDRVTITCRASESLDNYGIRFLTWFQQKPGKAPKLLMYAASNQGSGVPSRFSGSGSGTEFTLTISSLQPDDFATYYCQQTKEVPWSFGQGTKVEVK : 83.8
